target: T1, O12
T1 chain: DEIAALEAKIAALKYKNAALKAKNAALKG
assay_details: two-hybrid library CCNG1;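 further: natural log of median RNA to DNA barcode read ratio; higher means stronger binding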
value_kind: interaction score

Would you please look over these solved cases?
binder	interaction score
DEIAALEAKIAALKYKNAALKAKNAALKG [O12]	-2.08
DEIQELKKKNEELKREIWELEKKNQELER [4H967-bH]	-1.53
DKNAALKAENAALEYEIAALEAEIAALEG [O1]	-2.35

(P) DKNAALKAENAALEYKIAALKAKIAALKG [O10]
(Q) DKIAALKAEIAALEYENAALEAENAALEG [O11]
Exercise: Could you tell me which of these two has the smaller interaction score figure? First: P Second: Q Give the label of your selection.
Solution: P
